Every entry's value here was drawn from ChEMBL document CHEMBL4052722.

species on record: Bos taurus; assay: Displacement of ethidium bromide from calf thymus DNA by fluorescence binding assay
measured_attribute: log Ka
The answer should be written as a number, with no unit following it.

- structure: "O=C(CCCn1c2ccccc2c2nc3ccccc3nc21)NCCCNCCO"
  log Ka: 5.09

INPUT: State the recorded log Ka for this entry: c1ccc2nc3c(nc2c1)c1ccccc1n3CCOCCN1CCCCC1
OUTPUT: 5.19

INPUT: State the recorded log Ka for this entry: O=C1c2cccc3cccc(c23)C(=O)N1CCN1CCCCC1
OUTPUT: 5.29

* * *

assay: Cytotoxicity against African green monkey CV1 cells assessed as viable cells at 5 uM after 110 hrs by real-time cell analysis relative to control; format: cell-based, CV-1; conditions: chlorocebus aethiops, read-out: Activity
measured_attribute: viability at 110 h, 5 µM (%)
Give just the numeric value; % need not be written.

INPUT: State the recorded viability at 110 h, 5 µM for this entry: CCN(CC)CCCNCCn1c2ccccc2c2nc3ccccc3nc21
OUTPUT: 125

* * *

test: Cytotoxicity against African green monkey CV1 cells assessed as cell viability at 0.1 to 100 uM preincubated for 4 hrs measured after 24 hrs by MTT assay relative to control; format: cell-based, CV-1; settings: chlorocebus aethiops, read-out: Activity
Response field label: string, one of Condition met (viability at 24 h, up to 100 µM strictly below 90%) or Condition not met.

INPUT: Please indicate whether the reported viability at 24 h, up to 100 µM of O=C(Cn1c2ccccc2c2nc3ccccc3nc21)OCCN1CCCCC1 is strictly below 90%.
OUTPUT: Condition not met

* * *

organism: Bos taurus; test: Displacement of ethidium bromide from calf thymus DNA by fluorescence binding assay
measured_attribute: log Ka
The answer should be written as a number, with no unit following it.

- molecule: "CN(C)CCCNC(=O)CCN1C(=O)c2cccc3cccc(c23)C1=O"
  log Ka: 5.92

INPUT: State the recorded log Ka for this entry: OCCNCCn1c2ccccc2c2nc3ccccc3nc21
OUTPUT: 6.31

INPUT: State the recorded log Ka for this entry: CCN(CC)CCCNC(=O)CN1C(=O)c2cccc3cccc(c23)C1=O
OUTPUT: 5.31

INPUT: State the recorded log Ka for this entry: CCN(CC)CCN1C(=O)/C(=N\NC(=O)CCN2CCCCC2)c2ccccc21
OUTPUT: 5.39

INPUT: State the recorded log Ka for this entry: CN(C)CCCNCCn1c2ccccc2c2nc3ccccc3nc21
OUTPUT: 6.76

INPUT: State the recorded log Ka for this entry: CCCCN(C)CCn1c2ccccc2c2nc3ccccc3nc21
OUTPUT: 5.93

INPUT: State the recorded log Ka for this entry: c1ccc2nc3c(nc2c1)c1ccccc1n3CCNCCN1CCCCC1
OUTPUT: 6.85

INPUT: State the recorded log Ka for this entry: O=C(CN1CCOCC1)N/N=C1\C(=O)Nc2ccccc21
OUTPUT: 5.28

INPUT: State the recorded log Ka for this entry: CCN(CC)CCN1C(=O)c2cccc3cccc(c23)C1=O
OUTPUT: 6.98

INPUT: State the recorded log Ka for this entry: CN1CCN(CCCn2c3ccccc3c3nc4ccccc4nc32)CC1
OUTPUT: 6.37

INPUT: State the recorded log Ka for this entry: O=C(CCCCCN1C(=O)c2cccc3cccc(c23)C1=O)NCCCN1CCOCC1
OUTPUT: 6.03

INPUT: State the recorded log Ka for this entry: O=C(CN1CCCCC1)NN1C(=O)c2cccc3cccc(c23)C1=O
OUTPUT: 6.2

INPUT: State the recorded log Ka for this entry: CN1CCN(CCCCCn2c3ccccc3c3nc4ccccc4nc32)CC1
OUTPUT: 6.23

INPUT: State the recorded log Ka for this entry: CCN(CC)CCNCCn1c2ccccc2c2nc3ccccc3nc21
OUTPUT: 6.82

INPUT: State the recorded log Ka for this entry: CCN(CC)CCCCn1c2ccccc2c2nc3ccccc3nc21
OUTPUT: 6.22

INPUT: State the recorded log Ka for this entry: c1ccc2nc3c(nc2c1)c1ccccc1n3CCCCCCN1CCOCC1
OUTPUT: 5.73

INPUT: State the recorded log Ka for this entry: O=C(Cn1c2ccccc2c2nc3ccccc3nc21)NCCN1CCCCC1
OUTPUT: 5.15

INPUT: State the recorded log Ka for this entry: O=C(CN1CCCCCC1)N/N=C1/C(=O)Nc2ccc3ccccc3c21
OUTPUT: 6.52
